Each recorded value in this set is attributed to patent US20210388087A1.

Target: T1, Human CD3eg linker (human)
T1 construct: Single chain: epsilon and gamma subunits of human CD3 joined by a 29-mer linker, Flag-tag at the C-terminus; also called recombinant human CD3
T1 chain: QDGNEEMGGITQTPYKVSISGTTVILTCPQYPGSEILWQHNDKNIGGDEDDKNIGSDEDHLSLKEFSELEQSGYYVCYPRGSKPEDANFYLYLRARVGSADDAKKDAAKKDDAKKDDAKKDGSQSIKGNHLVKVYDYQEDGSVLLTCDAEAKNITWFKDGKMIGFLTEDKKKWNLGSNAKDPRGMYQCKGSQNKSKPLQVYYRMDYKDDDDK
Test: Biacore SPR, vs template H183/L072
Recorded measurements of fold change of affinity, one per entry
Give your result in fold as a bare value.

Binder	Value Measured
H183/L072 VH G52cY (antibody, name in Kabat numbering, V domains shown) VH: QVQLVESGGGLVQPGRSLRLSCAASGFTFSNAWMHWVRQAPGKGLEWVAQIKDKYNAYAAYYAPSVKGRFTISRDDSKNSIYLQMNSLKTEDTAVYYCHYVHYASASTVLPAFGVDAWGQGTTVTVSS VL: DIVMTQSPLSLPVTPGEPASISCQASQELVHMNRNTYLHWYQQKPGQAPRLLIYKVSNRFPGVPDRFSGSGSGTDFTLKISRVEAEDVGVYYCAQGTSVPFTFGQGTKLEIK	1.5
H183/L072 VH M34H (antibody, name in Kabat numbering, V domains shown) VH: QVQLVESGGGLVQPGRSLRLSCAASGFTFSNAWHHWVRQAPGKGLEWVAQIKDKGNAYAAYYAPSVKGRFTISRDDSKNSIYLQMNSLKTEDTAVYYCHYVHYASASTVLPAFGVDAWGQGTTVTVSS VL: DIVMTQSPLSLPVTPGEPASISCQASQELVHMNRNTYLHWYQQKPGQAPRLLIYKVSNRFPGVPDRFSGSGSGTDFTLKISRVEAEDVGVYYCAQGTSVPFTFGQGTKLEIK	0

Now let's try a different one.
Provide measured fold change of affinity value, entry: H183/L072 VH G65A (antibody, name in Kabat numbering, V domains shown) VH: QVQLVESGGGLVQPGRSLRLSCAASGFTFSNAWMHWVRQAPGKGLEWVAQIKDKGNAYAAYYAPSVKARFTISRDDSKNSIYLQMNSLKTEDTAVYYCHYVHYASASTVLPAFGVDAWGQGTTVTVSS VL: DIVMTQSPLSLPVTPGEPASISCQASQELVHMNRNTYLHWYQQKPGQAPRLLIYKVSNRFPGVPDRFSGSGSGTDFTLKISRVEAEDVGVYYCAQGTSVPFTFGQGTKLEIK 1.1
